Target: monoclonal antibody 4C3 (anti-Bla g 2)
Sequence (chain, as listed by the source, chain 1 of 2): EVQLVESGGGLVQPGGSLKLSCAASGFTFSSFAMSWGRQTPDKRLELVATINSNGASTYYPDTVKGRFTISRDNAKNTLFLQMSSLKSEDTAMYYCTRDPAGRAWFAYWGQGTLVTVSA
Sequence (chain, as listed by the source, chain 2 of 2): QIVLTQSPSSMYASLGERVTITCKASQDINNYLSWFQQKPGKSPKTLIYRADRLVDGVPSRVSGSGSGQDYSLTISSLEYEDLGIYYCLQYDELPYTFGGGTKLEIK
Assay: ELISA dose-response
Settings: chain shown with the change; allergen concentration 100 ng/ml; parent: est. 1.5; read off a plot
I'd be grateful if you could share measured response (Absorbance (405 nm)) for these entries.
One number for each entry.

Illustrative cases are given below, each with its answer.
binder recombinant Bla g 2-N93Q K251A (protein) VPLYKLVHVFINTQYAGITKIGNQNFLTVFDSTSCNVVVASQECVGGACVCPNLQKYEKLKPKYISDGNVQVKFFDTGSAVGRGIEDSLTISQLTTSQQDIVLADELSQEVCILSADVVVGIAAPGCPNALKGKTVLENFVEENLIAPVFSIHHARFQDGEHFGEIIFGGSDWKYVDGEFTYVPLVGDDSWKFRLDGVKIGDTTVAPAGTQAIIDTSKAIIVGPKAYVNPINEAIGCVVEKTTTRRICKLDCSAIPSLPDVTFVINGRNFNISSQYYIQQNGNLCYSGFQPCGHSDHFFIGDFFVDHYYSEFNWENKTMGFGRSVESV , response (Absorbance (405 nm)) observed: 0.14

binder recombinant Bla g 2-N93Q E233R; I199W (protein) VPLYKLVHVFINTQYAGITKIGNQNFLTVFDSTSCNVVVASQECVGGACVCPNLQKYEKLKPKYISDGNVQVKFFDTGSAVGRGIEDSLTISQLTTSQQDIVLADELSQEVCILSADVVVGIAAPGCPNALKGKTVLENFVEENLIAPVFSIHHARFQDGEHFGEIIFGGSDWKYVDGEFTYVPLVGDDSWKFRLDGVKWGDTTVAPAGTQAIIDTSKAIIVGPKAYVNPINRAIGCVVEKTTTRRICKLDCSKIPSLPDVTFVINGRNFNISSQYYIQQNGNLCYSGFQPCGHSDHFFIGDFFVDHYYSEFNWENKTMGFGRSVESV , response (Absorbance (405 nm)) observed: 0.14

binder recombinant Bla g 2-N93Q D248A (protein) VPLYKLVHVFINTQYAGITKIGNQNFLTVFDSTSCNVVVASQECVGGACVCPNLQKYEKLKPKYISDGNVQVKFFDTGSAVGRGIEDSLTISQLTTSQQDIVLADELSQEVCILSADVVVGIAAPGCPNALKGKTVLENFVEENLIAPVFSIHHARFQDGEHFGEIIFGGSDWKYVDGEFTYVPLVGDDSWKFRLDGVKIGDTTVAPAGTQAIIDTSKAIIVGPKAYVNPINEAIGCVVEKTTTRRICKLACSKIPSLPDVTFVINGRNFNISSQYYIQQNGNLCYSGFQPCGHSDHFFIGDFFVDHYYSEFNWENKTMGFGRSVESV , response (Absorbance (405 nm)) observed: 1.8

Turning now to a further binder:
binder recombinant Bla g 2-N93Q E233R (protein) VPLYKLVHVFINTQYAGITKIGNQNFLTVFDSTSCNVVVASQECVGGACVCPNLQKYEKLKPKYISDGNVQVKFFDTGSAVGRGIEDSLTISQLTTSQQDIVLADELSQEVCILSADVVVGIAAPGCPNALKGKTVLENFVEENLIAPVFSIHHARFQDGEHFGEIIFGGSDWKYVDGEFTYVPLVGDDSWKFRLDGVKIGDTTVAPAGTQAIIDTSKAIIVGPKAYVNPINRAIGCVVEKTTTRRICKLDCSKIPSLPDVTFVINGRNFNISSQYYIQQNGNLCYSGFQPCGHSDHFFIGDFFVDHYYSEFNWENKTMGFGRSVESV , response (Absorbance (405 nm)) observed: 1.7
